Each recorded value in this set is attributed to patent US20230087118A1.

Reported IC50 values for the following molecules.
Molecular target: UniProtKB Q9NWZ3
Sequence (Q9NWZ3 1-460): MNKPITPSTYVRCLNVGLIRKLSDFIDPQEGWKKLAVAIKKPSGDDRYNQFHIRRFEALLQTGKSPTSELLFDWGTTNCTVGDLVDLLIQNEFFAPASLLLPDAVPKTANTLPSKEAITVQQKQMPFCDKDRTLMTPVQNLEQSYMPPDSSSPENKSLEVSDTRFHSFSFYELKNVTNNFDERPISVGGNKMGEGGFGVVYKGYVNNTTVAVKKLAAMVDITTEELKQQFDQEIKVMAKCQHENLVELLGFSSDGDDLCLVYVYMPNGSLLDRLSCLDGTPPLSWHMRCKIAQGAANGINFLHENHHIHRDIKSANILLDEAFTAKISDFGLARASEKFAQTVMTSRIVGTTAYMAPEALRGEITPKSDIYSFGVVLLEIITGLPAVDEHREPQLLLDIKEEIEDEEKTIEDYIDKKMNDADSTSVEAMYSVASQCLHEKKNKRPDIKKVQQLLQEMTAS
Assay: biochemical
The response must be a number in nM with no trailing unit.

Record request: IC50 value, item Cn1ccc(NC(=O)c2cn3cc([C@]45CC[C@](C)(C4)OC5)nc3cc2OC2CCCC2)n1 (single isomer, unassigned)
1.6

Suppose we examine the molecule "CC12CC(c3cn4cc(C(=O)Nc5ccn(CC(F)F)n5)c(OC5CCC5)cc4n3)(CO1)C2" ; what IC50 value has been reported?
5.6

// IC50 lookup, key: "CC(C)COc1cc2nc(C34COC(C)(C3)C4)cn2cc1C(=O)Nc1cccn(C(F)F)c1=O"
0.7

If you can, please state the reported IC50 value of "COc1cc2nc(C3CCOCC3)cn2cc1C(=O)Nc1cccc(C(F)(F)CF)c1" .
57.9

IC50 lookup needed for "CC(C)Oc1cc2nc(C34COC(C)(C3)C4)cn2cc1C(=O)Nc1ccn(CC#N)n1" , thanks.
3.6

Param item = "COCc1cc2nc(C34COC(C)(C3)C4)cn2cc1C(=O)Nc1ccn(C)n1" ; retrieve measured IC50.
5980

Reported IC50, molecule COc1ncccc1NC(=O)c1cn2cc(C34CCC(C)(C3)OC4)nc2nc1OC(C)C (centres unmarked) : ____
0.2

Fill in: IC50 of COc1ncccc1NC(=O)c1cn2cc(C34CCC(C)(C3)OC4)nc2c(OC(C)C)n1 (centres unmarked) is ___
0.8
